# credit: PubChem BioAssay AID1159580

experiment: chemical genetic growth profiling, strain panel (AID 1159580);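 note: tested at 20 µM; growth read once vehicle control cultures reached saturation at 30 °C; 1 = growth at the plate median or of vehicle wells; lower values mean less growth of the strain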; conditions: S. cerevisiae deletion strains, growth OD, locus YNL197C, strain WHI3, hits give low values
About 2,000 (36%) of roughly 5,500 compounds were called active. About 18% were inconclusive and are not listed. The list shows a part of the results.
readout: normalized growth

{"columns": ["molecule", "meas-value"],
 "data": [
  ["CCCCCC(O)c1cccc(OCc2ccc3ccccc3n2)c1 (stereo not drawn)", 0.995],
  ["C[C@]12CC[C@@H]3c4ccc(O)cc4CC[C@H]3[C@@H]1CCC2=O", 1],
  ["CC[C@H](CO)Nc1nc(NCc2ccccc2)c2ncn(C(C)C)c2n1", 1],
  ["COc1ccccc1N1CCN(CCCCNS(=O)(=O)c2cccc3c(N(C)C)cccc23)CC1", 0.99],
  ["NCCC1CCCC(CCN)N1 (stereo not drawn)", 1],
  ["CNc1ncnc2c1ncn2[C@@H]1O[C@H](CO)[C@H](O)C1O (stereo partly drawn)", 0.999],
  ["Cc1ccccc1CNc1ncnc2c1ncn2C1OC(CO)C(O)C1O (stereo not drawn)", 0.995],
  ["Cc1nc(-c2ccc(-c3ccc(C(=O)N4CCc5cc6c(cc54)C4(CCN(C)CC4)CO6)cc3)c(C)c2)no1", 0.989],
  ["CCCNC(=O)NS(=O)(=O)c1ccc(Cl)cc1", 1.02],
  ["CCCCCCCCCCC/C=C\\C(C)(C)/C=C\\CCCC(=O)O", 0.985],
  ["NCCCCNCCCN", 0.988],
  ["CC(=O)NCCc1c[nH]c2ccc(O)cc12", 1.01],
  ["COc1cc2c(CCNC(C)=O)c[nH]c2cc1O", 1.02],
  ["NCCCC(=O)O", 0.975],
  ["NC(=NCc1ccc(Cl)c(Cl)c1)NC(=O)c1nc(Cl)c(N)nc1N", 1.03],
  ["N.N.O=C(O)C1(C(=O)O)CCC1.[Pt+2]", 1.04],
  ["NC1(C(=O)O)CC1", 0.965],
  ["CC1(C)C(=O)N(CCN2CCC(C(=O)c3ccc(F)cc3)CC2)c2ccccc21", 1.02],
  ["O=C(O)/C=C/C(O)c1ccc(Cl)cc1 (stereo not drawn)", 0.986],
  ["CSc1ccc(C(=O)c2[nH]c(=O)[nH]c2C)cc1", 0.994],
  ["CCCN1CCC[C@@H]2Cc3[nH]ncc3C[C@H]21", 1.02],
  ["CC(C)=CCC/C(C)=C/CC/C(C)=C/CSc1ccccc1C(=O)O", 0.965],
  ["NC(=O)c1ncn(C2OC(CO)C(O)C2O)n1 (stereo not drawn)", 1.01],
  ["COc1cc2nc(N3CC=[N+](C(=O)c4ccco4)CC3)nc(N)c2cc1OC", 1.01],
  ["C[C@]12CC[C@H]3[C@@H](CCC4C[C@H](O)CC[C@@]43C)[C@@H]1CC[C@@H]2O (stereo partly drawn)", 0.964],
  ["NC(CP(=O)(O)O)C(=O)O (stereo not drawn)", 1.01],
  ["Cc1ccccc1/C=C/C1=NCCN1", 0.993],
  ["COc1ccccc1N1CCN(CCN2C(=O)CC3(CCCC3)CC2=O)CC1", 0.999],
  ["C[C@]12CCC3C(CC[C@H]4C[C@H](O)CC[C@]34C)C1CC[C@@H]2C(=O)CO (stereo partly drawn)", 1.02],
  ["Cc1oncc1C(=O)Nc1ccc(C(F)(F)F)cc1", 0.946],
  ["O=C1CCCN1CC#CCN1CCCC1", 0.986],
  ["CN(C)C/C=C(/c1ccc(Br)cc1)c1cccnc1", 1],
  ["NC(N)=NCCCCN=C(N)N", 1.02],
  ["CCCc1c(-c2ccc(O)cc2)nn(-c2ccc(O)cc2)c1-c1ccc(O)cc1", 1.01],
  ["CC(=O)OCC1=C(C(=O)O)N2C(=O)[C@@H](NC(=O)CCC[C@@H](N)C(=O)O)[C@H]2SC1", 1.02],
  ["COc1cc2c(CCNC(C)=O)c[nH]c2cc1Cl", 0.989],
  ["COc1cc2nc(N3CCN(C(=O)OCc4ccccc4)C(C(=O)NC(C)(C)C)C3)nc(N)c2cc1OC (stereo not drawn)", 1.03],
  ["COc1cc2nc(N3CCN(C(=O)C4COc5ccccc5O4)CC3)nc(N)c2cc1OC (stereo not drawn)", 0.947],
  ["O=c1[nH]c2cc(C(F)(F)F)ccc2n1-c1cc(C(F)(F)F)ccc1O", 0.995],
  ["O=C(O)C1CCCNC1 (stereo not drawn)", 1.01],
  ["CN(C)CCC(c1ccccc1)c1ccccn1 (stereo not drawn)", 1.01],
  ["Nc1ccc(CCN2CCN(c3cccc(C(F)(F)F)c3)CC2)cc1", 1],
  ["C[C@@H](Oc1ccc(Oc2cnc3ccc(Cl)cc3n2)cc1)C(=O)O", 0.996]
]}
